assay.readout: melting point

> print(dat)
                                   compound            val
1          c1ccc2c(c1)Oc1ccccc1C2NCc1ccncc1    83 to 85 °C
2  COC(=O)c1cc(C(C)O)c(C(F)(F)F)cc1NC(C)=O (configuration not stated)  120 to 122 °C
3  CC(=O)N[C@H]1C[C@H](C)N(C(=O)OC(C)(C)C)C1  108 to 110 °C
4  Nc1nc(N)c(N=O)c(OCC2CC=CCC2)n1 (configuration not stated)         237 °C
5  COc1ccc(CCN(C)C(=O)COc2ccc([N+](=O)[O-])cc2)cc1OC         121 °C

Dear colleague, could you send me melting point for each of the items below? Thanks.
1. Cc1ccc2c(c1)C(O)(c1ccccn1)CC(C)(C)CO2 (configuration not stated)
2. Cc1cc(O)c(F)cc1Br
3. CC1(C)C(=NO)C(=O)C2(C)CC(O)C12 (configuration not stated)

RESULT:
["126 °C", "44 to 46 °C", "115 to 118 °C"]

Can you give me melting point for all of these, one by one?
1. CCCCC(=O)c1cc2oc(C(=O)O)cc2c(C)c1C
2. COc1cccc2sc(-c3ccc([N+](=O)[O-])cc3Cl)nc12
3. O=C1COCCOCC(=O)NCCOCCOCCOCCN1

RESULT:
["188 to 189 °C", "187 to 188 °C", "90 to 91 °C"]

QUERY: Which value of melting point has been reported for `CN1CCc2c(c3ccccc3n2CCC(N)=S)C1` in the records?
RESULT: 149 to 151 °C

* * *

Kindly supply the reported melting point values for the records listed here.

Each of the following entries comes with a recorded value; kindly state melting point for each.
1. CC[C@H](C)C(OCc1ccccc1)[C@H]1[C@H]([N+](=O)[O-])[C@H](c2ccsc2)N[C@@H]1C(=O)NCCC(=O)O (stereo partly drawn)
2. OC1(c2ccoc2)CN2CCC1CC2 (stereo not drawn)

RESULT:
145 to 146 °C
130 to 133 °C

Batch request: melting point per item, same order as input.
1. CC(=NC(=Nc1ccccc1)N1CCOCC1)NCc1ccccc1
2. C[C@@H]1CNC(=O)c2cc3c(Cl)cccc3n21
3. CN1C(=O)C2(CCN(Cc3ccccc3)CC2)N=C(c2ccccc2)c2cc(Cl)ccc21
4. Cc1ccc(S(=O)(=O)C(CCl)Sc2cccc([N+](=O)[O-])c2)cc1 (stereo not drawn)
5. CN(C)S(=O)(=O)c1cc(-c2csc(=Nc3ccc(C(F)(F)F)cc3)n2C)ccc1Cl

RESULT:
1: 126 to 129 °C; 2: 180 to 184 °C; 3: 169 to 170 °C; 4: 92 to 101 °C; 5: 147 to 151 °C

Respectfully, I request melting point for each entry included below.
1. CC(=O)NC1CCc2c([nH]c3ccc(Br)cc23)C1 (stereo not drawn)
2. CC(=O)c1cc(C(C)=O)c(O)c(C(C)C)c1O
3. NCc1cccc(-c2csc(N=C(N)N)n2)n1
4. N=C(N)N1CCC(CCC(=O)O)CC1

RESULT:
1. 210 to 211 °C
2. 132 to 133 °C
3. 228 to 229 °C
4. > 275 °C

Provide reported melting point for each item, in the same order as listed.
1. NC(=O)C1CCc2[nH]c3ccc(OC(F)(F)F)cc3c2C1 (stereo not drawn)
2. CCc1ccc2nc(Cl)nc(Cl)c2c1

RESULT:
1. 177 to 178 °C
2. 80 to 83 °C

Look up melting point for the entries below, preserving their order.
1. CC1Nc2ccccc2N2CCc3cc(Cl)cc1c32 (stereo not drawn)
2. C=C(Cl)CNC(=S)SCc1ccccc1
3. COC(=O)c1cc(C23CC4CC(CC(C4)C2)C3)c(OC)cc1F
4. CC1(N)CN(C(c2ccccc2)c2ccccc2)C1

RESULT:
1: 167 to 170 °C; 2: 46 to 48 °C; 3: 82 to 88 °C; 4: 84 to 86 °C

Hello, I would appreciate it if you could give melting point for each entry below.
1. Cn1c([N+](=O)[O-])cnc1COc1ccc([N+](=O)[O-])cc1Cl
2. CCCCC(=O)c1ccc(OCC(=O)O)c(Cl)c1Cl

RESULT:
["138 °C", "110 to 113 °C"]

For every item below, please supply its melting point.
1. CCOC(=O)c1nc(NC)sc1-c1cn2ccccc2n1
2. COc1cc(CCCC2OC(=O)NC2=O)cc(OC)c1O (stereo not drawn)
3. CCCc1cc2c(c(C)c1O)CCO2
4. Nc1ncc(-c2ccccc2F)nc1C(=O)Nc1cccnc1

RESULT:
1. 197 to 200 °C
2. 155 to 156 °C
3. 72 to 73 °C
4. 221 to 225 °C

// provenance: a melting point compilation (Tetko et al.; mined from patent text by program, amines drawn as free bases though some values may be those of a salt)
